Reference source: patent US20090111801A1

- target.or.test.system: hα2A receptor (Homo sapiens, UniProt P08913)
- Construct: expressed in transfected cells; host or cells: CHO cells, stably transfected; membrane preparation
- Sequence (P08913 1-465): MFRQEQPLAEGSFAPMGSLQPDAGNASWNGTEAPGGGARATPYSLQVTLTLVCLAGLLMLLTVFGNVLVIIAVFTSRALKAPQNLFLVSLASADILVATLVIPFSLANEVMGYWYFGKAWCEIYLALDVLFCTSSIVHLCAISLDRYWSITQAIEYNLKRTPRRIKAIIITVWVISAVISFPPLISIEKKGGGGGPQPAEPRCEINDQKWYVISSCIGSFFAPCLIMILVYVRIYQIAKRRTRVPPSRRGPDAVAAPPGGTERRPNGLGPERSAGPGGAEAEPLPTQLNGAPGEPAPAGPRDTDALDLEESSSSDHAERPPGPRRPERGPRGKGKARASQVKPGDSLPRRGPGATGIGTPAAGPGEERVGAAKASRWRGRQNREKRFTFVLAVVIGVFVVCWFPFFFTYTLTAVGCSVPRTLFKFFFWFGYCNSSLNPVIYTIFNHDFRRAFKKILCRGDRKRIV
- assay.text: Radioligand binding experiment for α2A-adrenoceptor ([3H]raulwolscine, CHO cell membranes)
- setup.conditions: [3H]raulwolscine binding, read-out: h-α2A pIC50 (converted)

{"molecule": "C/C(=C\\c1ccccc1)CN1CCC(Nc2nccn(Cc3ccc(CNS(=O)(=O)c4ccc(F)cc4)cc3)c2=O)CC1", "IC50 [µM]": 0.1}
{"molecule": "COC(=O)CCNC(=O)Cn1ccnc(NC2CCN(C/C(C)=C/c3ccccc3)CC2)c1=O", "IC50 [µM]": 0.158}
{"molecule": "COc1cc(CNC(=O)NCc2ccc(Cn3ccnc(NC4CCN(C/C(C)=C/c5ccccc5)CC4)c3=O)cc2)cc(OC)c1", "IC50 [µM]": 0.251}
{"molecule": "CCOC(=O)N1CCN(Cc2cccc(-n3ccnc(NC4CCN(C/C(C)=C/c5ccccc5)CC4)c3=O)c2)CC1", "IC50 [µM]": 0.1}
{"molecule": "C/C(=C\\c1ccccc1)CN1CCC(Nc2nccn(-c3cccc(N)c3)c2=O)CC1", "IC50 [µM]": 0.0316}
{"molecule": "C/C(=C\\c1ccccc1)CN1CCC(Nc2nccn(Cc3ccc4ccccc4n3)c2=O)CC1", "IC50 [µM]": 0.0794}
{"molecule": "C/C(=C\\c1ccccc1)CN1CCC(Nc2nccn(CC(=O)N(C)Cc3ccccc3)c2=O)CC1", "IC50 [µM]": 0.0631}
{"molecule": "C/C(=C\\c1ccccc1)CN1CCC(Nc2nccn(CC(=O)NCCCN(C)C)c2=O)CC1", "IC50 [µM]": 0.0316}
{"molecule": "C/C(=C\\c1ccccc1)CN1CCC(Nc2nccn(Cc3ccc(CN)cc3)c2=O)CC1 [1-6]", "IC50 [µM]": 0.0126}
{"molecule": "C/C(=C\\c1ccccc1)CN1CCC(Nc2nccn(Cc3ccc(CNS(=O)(=O)c4ccccc4)cc3)c2=O)CC1", "IC50 [µM]": 0.0631}
{"molecule": "C/C(=C\\c1ccccc1)CN1CCC(Nc2nccn(-c3ccccc3)c2=O)CC1", "IC50 [µM]": 0.0316}
{"molecule": "C/C(=C\\c1ccccc1)CN1CCN(c2nccn(CCOCc3ccccc3)c2=O)CC1", "IC50 [µM]": 0.398}
{"molecule": "C/C(=C\\c1ccccc1)CN1CCC(Nc2nccn(CCCN(C)C(=O)OC(C)(C)C)c2=O)CC1", "IC50 [µM]": 0.1}
{"molecule": "C/C(=C\\c1ccccc1)CN1CCC(Nc2nccn(CC(=O)N3CCN(c4ccccc4)CC3)c2=O)CC1", "IC50 [µM]": 0.126}
{"molecule": "C/C(=C\\c1ccccc1)CN1CCC(Nc2nccn(CC(=O)NCCN(C)C)c2=O)CC1", "IC50 [µM]": 0.0316}
{"molecule": "C/C(=C\\c1ccccc1)CN1CCC(Nc2nccn(-c3ccc(C(=O)N4CCN(c5ncccn5)CC4)cc3)c2=O)CC1", "IC50 [µM]": 0.1}
{"molecule": "O=c1c(NC2CCN(C/C=C/c3ccccc3)CC2)nccn1Cc1cccc(Br)c1", "IC50 [µM]": 0.501}
{"molecule": "C/C(=C\\c1ccccc1)CN1CCC(Nc2nccn(CCCN(Cc3ccccc3)C(=O)c3ccccc3)c2=O)CC1", "IC50 [µM]": 0.2}
{"molecule": "C/C(=C\\c1ccccc1)CN1CCN(c2nccn(CC(=O)N(C)C)c2=O)CC1", "IC50 [µM]": 1.58}
{"molecule": "C/C(=C\\c1ccccc1)CN1CCC(Nc2nccn(-c3ccc(N)cc3)c2=O)CC1", "IC50 [µM]": 0.1}
{"molecule": "C/C(=C\\c1ccccc1)CN1CCN(c2nccn(Cc3ccco3)c2=O)CC1", "IC50 [µM]": 0.0501}
{"molecule": "C/C(=C\\c1ccccc1)CN1CCC(Nc2nccn(CC(=O)c3ccc4c(c3)NC(=O)CO4)c2=O)CC1", "IC50 [µM]": 0.0158}
{"molecule": "C/C(=C\\c1ccccc1)CN1CCC(Nc2nccn(CC(=O)NCC3CCCO3)c2=O)CC1 (stereo not shown)", "IC50 [µM]": 0.158}
{"molecule": "C/C(=C\\c1ccccc1)CN1CCC(Nc2nccn(Cc3ccc(CNS(=O)(=O)c4ccc(C#N)cc4)cc3)c2=O)CC1", "IC50 [µM]": 0.1}
{"molecule": "CCCn1ccnc(NC2CCN(C/C(C)=C/c3ccccc3)CC2)c1=O", "IC50 [µM]": 0.0251}
{"molecule": "C/C(=C\\c1ccccc1)CN1CCC(Nc2nccn(Cc3ccccc3Br)c2=O)CC1", "IC50 [µM]": 0.0501}
{"molecule": "C/C(=C\\c1ccccc1)CN1CCC(Nc2nccn(-c3ccc(N4CCCCC4)cc3)c2=O)CC1 [2-7]", "IC50 [µM]": 0.0501}
{"molecule": "C/C(=C\\c1ccccc1)CN1CCC(Nc2nccn(-c3cccc(NCc4ccccc4)c3)c2=O)CC1", "IC50 [µM]": 0.0251}
{"molecule": "COC(=O)C1CCN(C(=O)Cn2ccnc(NC3CCN(C/C(C)=C/c4ccccc4)CC3)c2=O)CC1", "IC50 [µM]": 0.126}
{"molecule": "C/C(=C\\c1ccccc1)CN1CCC(Nc2nccn(CC(=O)NCCc3ccccc3)c2=O)CC1", "IC50 [µM]": 0.126}
{"molecule": "C/C(=C\\c1ccccc1)CN1CCC(Nc2nccn(CCN3C(=O)c4ccccc4C3=O)c2=O)CC1", "IC50 [µM]": 0.158}
{"molecule": "C/C(=C\\c1ccccc1)CN1CCC(Nc2nccn(CC(=O)N3CCC(N4CCCC4)CC3)c2=O)CC1", "IC50 [µM]": 0.0251}
{"molecule": "O=c1c(NC2CCN(C/C=C/c3ccccc3)CC2)nccn1Cc1ccc2ccccc2c1", "IC50 [µM]": 0.251}
{"molecule": "CC(=O)Cn1ccnc(NC2CCN(C/C(C)=C/c3ccccc3)CC2)c1=O", "IC50 [µM]": 0.0501}
